The values you see were collected from patent US7118895B2.

# Tested on: Crude diglycosidase
# measurementProtocol: Examination of temperature in the conversion into isoflavone aglycons by diglycosidase using soybean materials
# Format: biochemical, Penicillium multicolor IAM7153
# reportedConditions: 80 °C; heat treatment of enzyme: no; 6 h
parameter: Decomposition efficiency of glycitin family in concentrated soybean protein (%)
Hi! Could you send only the number? It should be in %, unit omitted.

Previously resolved entries follow.
COc1cc2c(=O)c(-c3ccc(O)cc3)coc2cc1O[C@@H]1O[C@H](COC(=O)CC(=O)O)[C@@H](O)[C@H](O)[C@H]1O [malonylglycitin, 6″-O-malonylglycitin]    0.3
COc1cc2c(=O)c(-c3ccc(O)cc3)coc2cc1O [glycitein]    22.8

Shifting focus to the molecule that follows.
Param readout= Decomposition efficiency of glycitin family in concentrated soybean protein; system= Crude diglycosidase; entry= COc1cc2c(=O)c(-c3ccc(O)cc3)coc2cc1O[C@@H]1O[C@H](COC(C)=O)[C@@H](O)[C@H](O)[C@H]1O [acetylglycitin, 6″-O-acetylglycitin] ; returns value.
35.2

----------
# Test system: Crude diglycosidase
# measurementProtocol: Examination of substrate concentration in the conversion into isoflavone aglycons by diglycosidase using soybean materials;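 also: percent of the isoflavone family total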
# Format: biochemical, Penicillium multicolor IAM7153
# reportedConditions: roasted soy flour, substrate concentration 30%, heat treatment of enzyme no, reaction time 0 h
parameter: Decomposition efficiency: ratio of each glycoside/aglycon within its isoflavone family

COc1cc2c(=O)c(-c3ccc(O)cc3)coc2cc1O[C@@H]1O[C@H](COC(=O)CC(=O)O)[C@@H](O)[C@H](O)[C@H]1O    not detected
O=C(O)CC(=O)OC[C@H]1O[C@@H](Oc2ccc3c(=O)c(-c4ccc(O)cc4)coc3c2)[C@H](O)[C@@H](O)[C@@H]1O    not detected
O=C(O)CC(=O)OC[C@H]1O[C@@H](Oc2cc(O)c3c(=O)c(-c4ccc(O)cc4)coc3c2)[C@H](O)[C@@H](O)[C@@H]1O    not detected

----------
# Test system: Crude diglycosidase
# measurementProtocol: Examination of substrate concentration in the conversion into isoflavone aglycons by diglycosidase using soybean materials;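 also: percent of the isoflavone family total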
# Format: biochemical, Penicillium multicolor IAM7153
# reportedConditions: soymilk, substrate concentration 30%, heat treatment of enzyme yes, reaction time 6 h
parameter: Decomposition efficiency: ratio of each glycoside/aglycon within its isoflavone family

COc1cc2c(=O)c(-c3ccc(O)cc3)coc2cc1O[C@@H]1O[C@H](COC(C)=O)[C@@H](O)[C@H](O)[C@H]1O    not detected
O=c1c(-c2ccc(O)cc2)coc2cc(O[C@@H]3O[C@H](CO)[C@@H](O)[C@H](O)[C@H]3O)ccc12    40.0%
CC(=O)OC[C@H]1O[C@@H](Oc2ccc3c(=O)c(-c4ccc(O)cc4)coc3c2)[C@H](O)[C@@H](O)[C@@H]1O    not detected

----------
# System: Crude diglycosidase
# measurementProtocol: Examination of substrate concentration in the conversion into isoflavone aglycons by diglycosidase using soybean materials;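 also: percent of the isoflavone family total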
# Type: biochemical, Penicillium multicolor IAM7153
# reportedConditions: soymilk, substrate concentration 10%, heat treatment of enzyme no, reaction time 0 h
parameter: Decomposition efficiency: ratio of each glycoside/aglycon within its isoflavone family

CC(=O)OC[C@H]1O[C@@H](Oc2ccc3c(=O)c(-c4ccc(O)cc4)coc3c2)[C@H](O)[C@@H](O)[C@@H]1O    not detected
COc1cc2c(=O)c(-c3ccc(O)cc3)coc2cc1O[C@@H]1O[C@H](COC(C)=O)[C@@H](O)[C@H](O)[C@H]1O    not detected
COc1cc2c(=O)c(-c3ccc(O)cc3)coc2cc1O[C@@H]1O[C@H](COC(=O)CC(=O)O)[C@@H](O)[C@H](O)[C@H]1O    41.1%

----------
# Tested on: Crude diglycosidase
# measurementProtocol: Examination of substrate concentration in the conversion into isoflavone aglycons by diglycosidase using soybean materials;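 also: percent of the isoflavone family total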
# Format: biochemical, Penicillium multicolor IAM7153
# reportedConditions: concentrated soybean protein, substrate concentration 20%, heat treatment of enzyme no, reaction time 6 h
parameter: Decomposition efficiency: ratio of each glycoside/aglycon within its isoflavone family

O=C(O)CC(=O)OC[C@H]1O[C@@H](Oc2cc(O)c3c(=O)c(-c4ccc(O)cc4)coc3c2)[C@H](O)[C@@H](O)[C@@H]1O [malonylgenistin, 6″-O-malonylgenistin]    not detected
COc1cc2c(=O)c(-c3ccc(O)cc3)coc2cc1O[C@@H]1O[C@H](CO)[C@@H](O)[C@H](O)[C@H]1O [glycitin]    not detected
O=c1c(-c2ccc(O)cc2)coc2cc(O[C@@H]3O[C@H](CO)[C@@H](O)[C@H](O)[C@H]3O)cc(O)c12 [genistin]    not detected

----------
# Test system: Crude diglycosidase
# measurementProtocol: Examination of substrate concentration in the conversion into isoflavone aglycons by diglycosidase using soybean materials;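 also: percent of the isoflavone family total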
# Type: biochemical, Penicillium multicolor IAM7153
# reportedConditions: concentrated soybean protein, substrate concentration 30%, heat treatment of enzyme no, reaction time 3 h
parameter: Decomposition efficiency: ratio of each glycoside/aglycon within its isoflavone family

COc1cc2c(=O)c(-c3ccc(O)cc3)coc2cc1O[C@@H]1O[C@H](CO)[C@@H](O)[C@H](O)[C@H]1O    not detected
O=C(O)CC(=O)OC[C@H]1O[C@@H](Oc2cc(O)c3c(=O)c(-c4ccc(O)cc4)coc3c2)[C@H](O)[C@@H](O)[C@@H]1O    not detected
O=C(O)CC(=O)OC[C@H]1O[C@@H](Oc2ccc3c(=O)c(-c4ccc(O)cc4)coc3c2)[C@H](O)[C@@H](O)[C@@H]1O    not detected
O=c1c(-c2ccc(O)cc2)coc2cc(O[C@@H]3O[C@H](CO)[C@@H](O)[C@H](O)[C@H]3O)cc(O)c12    not detected
COc1cc2c(=O)c(-c3ccc(O)cc3)coc2cc1O[C@@H]1O[C@H](COC(C)=O)[C@@H](O)[C@H](O)[C@H]1O    30.7%

# lookup: Decomposition efficiency: ratio of each glycoside/aglycon within its isoflavone family of O=c1c(-c2ccc(O)cc2)coc2cc(O[C@@H]3O[C@H](CO)[C@@H](O)[C@H](O)[C@H]3O)ccc12
not detected

----------
# Test system: Crude diglycosidase
# measurementProtocol: Examination of substrate concentration in the conversion into isoflavone aglycons by diglycosidase using soybean materials;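 also: percent of the isoflavone family total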
# Type: biochemical, Penicillium multicolor IAM7153
# reportedConditions: roasted soy flour, substrate concentration 10%, heat treatment of enzyme yes, reaction time 6 h
parameter: Decomposition efficiency: ratio of each glycoside/aglycon within its isoflavone family

COc1cc2c(=O)c(-c3ccc(O)cc3)coc2cc1O[C@@H]1O[C@H](COC(=O)CC(=O)O)[C@@H](O)[C@H](O)[C@H]1O    not detected
O=C(O)CC(=O)OC[C@H]1O[C@@H](Oc2ccc3c(=O)c(-c4ccc(O)cc4)coc3c2)[C@H](O)[C@@H](O)[C@@H]1O    not detected
O=C(O)CC(=O)OC[C@H]1O[C@@H](Oc2cc(O)c3c(=O)c(-c4ccc(O)cc4)coc3c2)[C@H](O)[C@@H](O)[C@@H]1O    not detected

----------
# Tested on: Crude diglycosidase
# measurementProtocol: Examination of substrate concentration in the conversion into isoflavone aglycons by diglycosidase using soybean materials;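 also: percent of the isoflavone family total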
# Type: biochemical, Penicillium multicolor IAM7153
# reportedConditions: soymilk, substrate concentration 5%, heat treatment of enzyme no, reaction time 1 h
parameter: Decomposition efficiency: ratio of each glycoside/aglycon within its isoflavone family

Previously resolved entries follow.
COc1cc2c(=O)c(-c3ccc(O)cc3)coc2cc1O[C@@H]1O[C@H](COC(C)=O)[C@@H](O)[C@H](O)[C@H]1O [acetyl-glycitin]    not detected
O=c1c(-c2ccc(O)cc2)coc2cc(O[C@@H]3O[C@H](CO)[C@@H](O)[C@H](O)[C@H]3O)ccc12 [daidzin]    not detected
O=c1c(-c2ccc(O)cc2)coc2cc(O[C@@H]3O[C@H](CO)[C@@H](O)[C@H](O)[C@H]3O)cc(O)c12 [genistin]    not detected
CC(=O)OC[C@H]1O[C@@H](Oc2ccc3c(=O)c(-c4ccc(O)cc4)coc3c2)[C@H](O)[C@@H](O)[C@@H]1O [acetyl-daidzin]    not detected
COc1cc2c(=O)c(-c3ccc(O)cc3)coc2cc1O[C@@H]1O[C@H](CO)[C@@H](O)[C@H](O)[C@H]1O [glycitin]    not detected

# lookup: Decomposition efficiency: ratio of each glycoside/aglycon within its isoflavone family of CC(=O)OC[C@H]1O[C@@H](Oc2cc(O)c3c(=O)c(-c4ccc(O)cc4)coc3c2)[C@H](O)[C@@H](O)[C@@H]1O [acetyl-genistin]
not detected
